Answer each item with its documented selectivity ratio.
- measurement_description: Selectivity index, ratio of CC50 for cytotoxicity against mouse J774.A1 cells to IC50 for antileishmanial activity against Leishmania amazonensis promastigote assessed as inhibition of parasite growth
- Type: toxicity, cell-based
- experimental_parameters: read-out: Ratio CC50/IC50
// print number alone

Data request, read-out selectivity ratio, for N#Cc1ccsc1/N=C/c1c[nH]c2ccc(Br)cc12
8.73

Data request, read-out selectivity ratio, for N#Cc1c(N)sc2c1CCCCC2
31.1

Data request, read-out selectivity ratio, for N#Cc1c(N)sc2c1CCCCCC2
36.6

* * *

- measurement_description: Cytotoxicity against mouse J774.A1 cells incubated for 72 hrs by MTT colorimetric assay
- Assay type: toxicity, cell-based
value_type: CC50 at 72 h (µM)
Supply the numeric figure in µM, leaving out any unit text.

Data request, read-out CC50 at 72 h, for N#Cc1c(N)sc2c1CCCCC2
99.5

Data request, read-out CC50 at 72 h, for N#Cc1ccsc1/N=C/c1c[nH]c2ccc(Br)cc12
84.7

Data request, read-out CC50 at 72 h, for N#Cc1c(N)sc2c1CCCCCC2
43.9

Data request, read-out CC50 at 72 h, for N#Cc1c(/N=C/c2c[nH]c3ccc(Br)cc23)sc2c1CCNC2
11.2

Source of measurements: ChEMBL document CHEMBL5385897
